The molecules listed here are annotated with their % Rmax hCD32a-H131.
Molecular target: T1, CD32a-H131 (FcgRIIa-H131) (Homo sapiens, UniProt P12318)
T1 sequence (P12318 34-217 limits assumed): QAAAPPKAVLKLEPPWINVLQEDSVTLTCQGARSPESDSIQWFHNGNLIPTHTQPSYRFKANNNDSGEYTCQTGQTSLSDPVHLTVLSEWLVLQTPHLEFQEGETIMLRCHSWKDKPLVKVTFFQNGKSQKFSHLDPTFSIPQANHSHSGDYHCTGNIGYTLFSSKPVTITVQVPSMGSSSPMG
Assay: SPR, antibody binding to anti-his Fab captured FcgR-his (% Rmax)
Conditions: 1 μM antibody
Respond with the bare value in %.

{"Molecule": "mAb6-IgG2.3 (protein, left off: another chain or arm of the molecule) constant: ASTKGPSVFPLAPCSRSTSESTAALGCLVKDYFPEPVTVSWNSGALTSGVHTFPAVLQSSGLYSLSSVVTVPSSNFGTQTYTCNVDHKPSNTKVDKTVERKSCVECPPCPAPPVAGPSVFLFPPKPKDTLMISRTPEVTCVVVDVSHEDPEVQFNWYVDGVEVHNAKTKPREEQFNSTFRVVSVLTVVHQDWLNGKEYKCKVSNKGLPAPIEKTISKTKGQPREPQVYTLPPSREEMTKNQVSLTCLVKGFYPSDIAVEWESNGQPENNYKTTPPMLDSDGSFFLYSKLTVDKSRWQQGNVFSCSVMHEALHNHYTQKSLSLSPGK", "Reported Metric": "% Rmax hCD32a-H131", "Readout Number": 66}

Then there is this molecule:
# input Report % Rmax hCD32a-H131 for mAb13-IgG2.5 (protein, left off: another chain or arm of the molecule) constant: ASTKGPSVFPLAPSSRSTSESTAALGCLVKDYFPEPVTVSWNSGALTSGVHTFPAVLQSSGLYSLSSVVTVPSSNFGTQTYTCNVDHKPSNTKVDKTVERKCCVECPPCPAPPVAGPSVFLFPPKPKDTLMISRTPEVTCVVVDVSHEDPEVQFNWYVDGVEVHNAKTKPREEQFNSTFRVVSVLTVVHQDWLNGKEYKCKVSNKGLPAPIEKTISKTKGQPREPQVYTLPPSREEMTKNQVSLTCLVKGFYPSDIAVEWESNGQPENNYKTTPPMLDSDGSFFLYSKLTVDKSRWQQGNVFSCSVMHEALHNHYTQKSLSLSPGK
# output 39
